Just for reference, PubChem BioAssay (NCI) is where these values come from.

# Tested on: TK-10 renal
# PROCEDURE_SUMMARY: NCI tumour cell line growth inhibition, 48 h
# reported TGI; entries follow
READOUT_LABEL: TGI (µM)

>>> quantitative_readout("O=S1(=O)c2ccccc2N=C(c2ccccc2Cl)CC1c1ccc(F)cc1 (centres undefined)")
50.4
>>> quantitative_readout("O=C(NCCCCCN1CCC2(CCCCC2)CC1)C(C1CCCCC1)C1CCCCC1")
10.4
>>> quantitative_readout("COc1cc2c(cc1OCCCOc1ccc(-c3nc4ccc(N5CCN(C)CC5)cc4[nH]3)cc1)N=C[C@@H]1CCCN1C2=O")
0.492
>>> quantitative_readout("Cc1ccc(-c2n[nH]c(=O)c3noc(-c4ccc(C)cc4)c23)cc1")
14.2
>>> quantitative_readout("O=C(CCC1CCCCN1)Nc1ccc2c(c1)C(=O)c1ccc(NC(=O)CCN3CCCCC3)cc1C2=O (centres undefined)")
9.42
>>> quantitative_readout("COc1cc2c3c(cc(Cl)nc3c1OC)C(O)(CC(=O)c1ccccc1)C(=O)N2 (centres undefined)")
32.1

###

# Test system: K-562 leukemia
# PROCEDURE_SUMMARY: NCI tumour cell line growth inhibition, 48 h
# reported TGI; entries follow
READOUT_LABEL: TGI

>>> result("Clc1cc2nnn(C3CCCO3)c2cc1Cl (stereo unspecified)")
"> 100 µM"
>>> result("COC(=O)/C(=N\\Nc1nnc(C)n1N)C(C#N)c1ccccc1 (stereo unspecified)")
"> 100 µM"
>>> result("CN=C(N)N/N=C(\\C)c1ccc2c(c1)Cc1ccccc1-2")
"2.69 µM"
>>> result("O=c1[nH]nc(-c2ccccc2)n1-n1cnnc1")
"> 100 µM"
>>> result("COC(=O)c1cc(/C=C\\c2cc(OC)ccc2OC)ccc1OC")
"86 µM"
>>> result("CCOC(=O)c1cc(Br)c(-c2cc(C)co2)[nH]1")
"> 100 µM"

###

# reported TGI; entries follow
# System: BT-549 breast
# PROCEDURE_SUMMARY: NCI tumour cell line growth inhibition, 48 h
READOUT_LABEL: TGI

>>> result("COc1cc(/C=N/NC(=O)c2ccccc2Nc2cccc(C(F)(F)F)c2)cc(OC)c1OC")
"9.23 µM"
>>> result("O=C(CCCCCCCCC(=O)N/N=C\\c1cc(Cl)ccc1O)N/N=C\\c1cc(Cl)ccc1O")
"96.8 µM"
>>> result("CC(=O)NC1C(OCc2ccccc2)OC(CO)C(O)C1OCC(=O)N[C@@H](C)C(=O)N[C@H](CCC(=O)NCCCNc1ccc([N+](=O)[O-])c2[nH]c3ccccc3c(=O)c12)C(N)=O (stereo partly drawn)")
"96.9 µM"
>>> result("CC(C)NC(=O)OCc1c(COC(=O)NC(C)C)c(-c2cc[n+](COC(=O)C3CCCCC3)cc2)n2c1CCC2")
"> 100 µM"
>>> result("Cc1ccc(NC(=O)CC(=O)n2nc(C)c(N=Nc3cccc(C)c3)c2C)cc1")
"> 100 µM"
>>> result("O=c1[nH]nc(-c2ccccc2)n1-n1cnnc1")
"> 100 µM"
>>> result("CCCN1CCC=C(c2ccc(Nc3nc(Nc4ccccc4C(N)=O)c4cc[nH]c4n3)c(C)c2)C1")
"> 25 µM"
>>> result("COc1ccc(C2=NC(c3ccc(Cl)cc3)C(c3ccc(Cl)cc3)N2C(=O)N2CCNC(=O)C2)c(OC(C)C)c1 (stereo not drawn)")
"4.03 µM"
>>> result("CCCCCCCCCCCCOP(=O)(O)OP(=O)(O)OCC1OC(n2cc(C)c(=O)[nH]c2=O)CC1O (stereo not drawn)")
"> 100 µM"
>>> result("CCOC(=O)CCC(NC(=O)c1ccc(Nc2nc3ccccc3nc2C(=O)OCC)cc1)C(=O)OCC (stereo not drawn)")
"25.7 µM"
>>> result("Cc1c(Cl)c(C)c(Cc2c(C)c(Cl)c(C)c(Cl)c2O)c(O)c1Cl")
"8.33 µM"
>>> result("C=C1CC2[C@H](C)C(=O)CCC2(C)C2=C1C1CCC(C(C)CCC(=C)C(C)C(=O)O)C1(C)CC2=O (stereo partly drawn)")
"> 100 µM"
>>> result("C=CCNC(=S)/N=C/C(C(=O)Nc1ccccc1C)=C(\\C)O")
"> 100 µM"
>>> result("Cc1ccc(S[C@@H](C)[C@@](O)(C(N)=O)c2ccccc2)cc1")
"> 100 µM"
>>> result("COc1cc(Cn2c(-c3ccccc3)cc3c2-c2oncc2CC3)cc(OC)c1")
"> 100 µM"
>>> result("CCNC(=S)N/N=C(\\C)c1cccc(C)n1")
"> 100 µM"
>>> result("Cc1c(O)c(=O)ccn1CCc1ccc(O)cc1")
"> 100 µM"
>>> result("NS(=O)(=O)c1ccc(N=Nc2ccc(O)c(C(=O)O)c2)cc1")
"> 100 µM"

###

# Tested on: HT29 colon
# PROCEDURE_SUMMARY: NCI tumour cell line growth inhibition, 48 h
READOUT_LABEL: TGI

>>> result("Cc1ccc(S[C@@H](C)[C@@](O)(C(N)=O)c2ccccc2)cc1")
"> 100 µM"
>>> result("C[C@H](CCC(=O)NCC(=O)O)[C@H]1CC[C@H]2[C@@H]3[C@H](O)C[C@@H]4C[C@H](O)CC[C@]4(C)[C@H]3CC[C@]12C")
"> 100 µM"
>>> result("Cc1cc(Nc2nc(-c3ccncc3)nc3ccccc23)n[nH]1")
"> 100 µM"
>>> result("CCCCCCCCCCCCO[P+](=O)OCCCCCCCCCCCC")
"> 100 µM"
>>> result("CC1OC(=O)C(C(C)C)NC(=O)C(C(C)C)OC(=O)C(C(C)C)NC(=O)C(C)OC(=O)C(C(C)C)NC(=O)C(C(C)C)OC(=O)C(C(C)C)NC(=O)C(C)OC(=O)C(C(C)C)NC(=O)C(C(C)C)OC(=O)C(C(C)C)NC1=O (configuration not stated)")
"3.4 µM"
>>> result("Cc1c(Cl)cccc1NC(=O)c1sc2nc3c(cc2c1N)CCCC3")
"> 100 µM"
>>> result("Cc1ccc(S(=NS(=O)(=O)c2ccc(C)cc2)c2ccc(C)cc2)cc1")
"> 100 µM"
>>> result("CC1=CC(=O)NP(=O)(C23CC4CC(CC(C4)C2)C3)N1 (configuration not stated)")
"> 100 µM"
>>> result("Cc1ccc(/C=N/NS(=O)(=O)c2ccccc2)c(C)c1")
"> 100 µM"
>>> result("CN1CCN(c2ccc3nc(-c4ccc(OCCCCN5CCN(CCCCN6C(=O)c7cccc8cccc(c78)C6=O)CC5)cc4)[nH]c3c2)CC1")
"> 100 µM"
>>> result("C=CC(C)(O)CC/C=C(\\CO)C(=O)OC1C(C)OC(O[C@](C)(C=C)CC/C=C(\\CO)C(=O)O[C@H]2C[C@@]3(C(=O)OC4OC(CO)C(O)C(O)C4OC4OC(C)C(OC5OC(CO)C(O)C5O)C(OC5OC(CO)C(O)C(O)C5O)C4O)C(CC2(C)C)C2=CCC4[C@@]5(C)CC[C@H](OC6OC(COC7OC(C)C(O)C(O)C7OC7OCC(O)C(O)C7O)C(O)C(O)C6NC(C)=O)C(C)(C)C5CC[C@@]4(C)[C@]2(C)C[C@H]3O)C(O)C1O (some centres not stated)")
"6.06 µM"
>>> result("CCCN1CCC=C(c2ccc(Nc3nc(Nc4ccccc4C(N)=O)c4cc[nH]c4n3)c(C)c2)C1")
"> 13.2 µM"
>>> result("CCOC(C)OC1CC(n2cc(C)c(=O)[nH]c2=O)OC1CO (configuration not stated)")
"> 100 µM"
>>> result("CN(C)CCCNC(=O)c1cn2c(ccc3sc4ccccc4c(=O)c32)n1")
"2.74 µM"
>>> result("COc1cc2c3c(cc(Cl)nc3c1OC)C(O)(CC(=O)c1ccccc1)C(=O)N2 (configuration not stated)")
"44.7 µM"
>>> result("Cc1noc(/N=C2\\C=C(Nc3onc(C)c3C)C(=O)c3ccccc32)c1C")
"> 100 µM"
>>> result("CCCCCCCCCCSC(=N)N")
"2.84 µM"

###

# Test system: OVCAR-3 ovarian
# PROCEDURE_SUMMARY: NCI tumour cell line growth inhibition, 48 h
READOUT_LABEL: TGI (µM)

>>> quantitative_readout("C/C(=N\\NC(N)=S)c1ccc(C2CCCCC2)cc1")
30.5
>>> quantitative_readout("COc1cc(Cn2c(-c3ccccc3)cc3c2-c2oncc2CC3)cc(OC)c1")
0.477
>>> quantitative_readout("CCOC(=O)C1=C(C)N(C2OC(COC(=O)c3ccccc3)C(OC(=O)c3ccccc3)C2OC(=O)c2ccccc2)C(=S)NC1c1ccccc1 (stereo unspecified)")
71.9
>>> quantitative_readout("CCCCCCCCCCCCCCCCOCC(O)CO (stereo unspecified)")
46.7
>>> quantitative_readout("CC(C)[Si](OCC1CC(C#N)OC(C)(C)O1)(C(C)C)C(C)C (stereo unspecified)")
29.4
>>> quantitative_readout("CC1(C)CC(=O)C2=C(C1)OC1(CC2c2ccc(Cl)cc2)CC(c2ccc(Cl)cc2)C2=C(CC(C)(C)CC2=O)O1 (stereo unspecified)")
23.5
>>> quantitative_readout("C=CC(C)(O)CC/C=C(\\CO)C(=O)OC1C(C)OC(O[C@](C)(C=C)CC/C=C(\\CO)C(=O)O[C@H]2C[C@@]3(C(=O)OC4OC(CO)C(O)C(O)C4OC4OC(C)C(OC5OC(CO)C(O)C5O)C(OC5OC(CO)C(O)C(O)C5O)C4O)C(CC2(C)C)C2=CCC4[C@@]5(C)CC[C@H](OC6OC(COC7OC(C)C(O)C(O)C7OC7OCC(O)C(O)C7O)C(O)C(O)C6NC(C)=O)C(C)(C)C5CC[C@@]4(C)[C@]2(C)C[C@H]3O)C(O)C1O (stereo partly specified)")
0.344
>>> quantitative_readout("Nc1ccn(C2OC(C(OC3OC(CO)C(O)C(N)C3O)C(O)C(O)C(O)C(O)CO)C(N)C(O)C2O)c(=O)n1 (stereo unspecified)")
86.6
>>> quantitative_readout("O=C(C=C=Nc1ccccc1)C(=O)N=C=Cc1ccccc1")
2.97
>>> quantitative_readout("O=C(/C=C/c1ccc([N+](=O)[O-])cc1)c1cccc(Nc2nc(Nc3ccccc3)nc(Nc3ccccc3)n2)c1")
63.4
